Cited source for all entries: patent US20120164137A1

target: Human FRA on IGROV-1 human ovarian adenocarcinoma cells (human, UniProt P15328 25-234); assay: cell-based or functional assay
Sequence (P15328 25-234 limits assumed): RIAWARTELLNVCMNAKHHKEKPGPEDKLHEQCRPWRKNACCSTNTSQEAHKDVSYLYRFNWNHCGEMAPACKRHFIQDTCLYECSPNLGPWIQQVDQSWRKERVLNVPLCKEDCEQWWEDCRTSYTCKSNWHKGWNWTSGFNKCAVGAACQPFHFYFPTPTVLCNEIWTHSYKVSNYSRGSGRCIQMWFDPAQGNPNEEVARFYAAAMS
Measured INTL % (15 min) values are reported for all entries that follow.
Answer with a number only, understood to be in %.

// known answers, use as guide
1. MORAb-003 anti-FRA antibody, lot NB809-67 (low DO; harvested 13 days after initiation of culture) (antibody, human IgG1, kappa, V domains shown, N-linked neutral glycans at Asn299 in SEQ ID NO: 5) VH: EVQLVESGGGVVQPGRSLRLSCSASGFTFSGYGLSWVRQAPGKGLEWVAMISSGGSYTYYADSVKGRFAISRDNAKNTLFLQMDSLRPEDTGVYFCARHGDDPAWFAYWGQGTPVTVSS VL: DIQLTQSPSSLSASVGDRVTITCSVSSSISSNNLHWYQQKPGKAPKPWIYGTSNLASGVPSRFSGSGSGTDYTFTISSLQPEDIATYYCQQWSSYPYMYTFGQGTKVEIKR; 3
2. MORAb-003 anti-FRA antibody, lot NB859-27 (harvested 20 days after initiation of culture) (antibody, human IgG1, kappa, V domains shown, N-linked neutral glycans at Asn299 in SEQ ID NO: 5, also called Day 20 harvest) VH: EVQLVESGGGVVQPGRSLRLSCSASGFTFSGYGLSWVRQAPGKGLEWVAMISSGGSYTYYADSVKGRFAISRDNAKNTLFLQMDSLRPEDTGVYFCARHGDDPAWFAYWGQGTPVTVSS VL: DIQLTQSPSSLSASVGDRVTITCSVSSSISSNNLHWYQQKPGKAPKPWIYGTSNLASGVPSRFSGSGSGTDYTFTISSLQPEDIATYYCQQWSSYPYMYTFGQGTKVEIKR; 1

The measured INTL % (15 min) associated with MORAb-003 anti-FRA antibody, lot NB859-25 (harvested 14 days after initiation of culture) (antibody, human IgG1, kappa, V domains shown, N-linked neutral glycans at Asn299 in SEQ ID NO: 5, also called Day 14 harvest; positive control (round 3)) VH: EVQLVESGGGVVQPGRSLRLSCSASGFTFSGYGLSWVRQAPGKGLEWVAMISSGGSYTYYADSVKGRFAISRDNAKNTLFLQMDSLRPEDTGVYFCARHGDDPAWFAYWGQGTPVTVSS VL: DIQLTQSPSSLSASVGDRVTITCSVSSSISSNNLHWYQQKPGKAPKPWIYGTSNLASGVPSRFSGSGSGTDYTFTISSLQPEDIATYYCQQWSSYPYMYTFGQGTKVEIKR reads 1

The measured INTL % (15 min) associated with MORAb-003 anti-FRA antibody, lot NB810-12 (low temperature; harvested 14 days after initiation of culture) (antibody, human IgG1, kappa, V domains shown, N-linked neutral glycans at Asn299 in SEQ ID NO: 5) VH: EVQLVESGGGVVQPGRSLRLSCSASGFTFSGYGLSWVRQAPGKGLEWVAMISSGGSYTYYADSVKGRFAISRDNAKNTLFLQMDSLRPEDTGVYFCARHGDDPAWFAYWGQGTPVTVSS VL: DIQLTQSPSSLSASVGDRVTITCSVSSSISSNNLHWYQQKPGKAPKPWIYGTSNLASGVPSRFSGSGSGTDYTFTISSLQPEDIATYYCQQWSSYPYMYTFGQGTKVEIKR reads 3
